# measurement-target: human ether-à-go-go-related gene (hERG) potassium channel (human, UniProt Q12809);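 further: peak tail current of the secondary pulse compared with the same well before compound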
# Sequence (Q12809 whole entry, looked up): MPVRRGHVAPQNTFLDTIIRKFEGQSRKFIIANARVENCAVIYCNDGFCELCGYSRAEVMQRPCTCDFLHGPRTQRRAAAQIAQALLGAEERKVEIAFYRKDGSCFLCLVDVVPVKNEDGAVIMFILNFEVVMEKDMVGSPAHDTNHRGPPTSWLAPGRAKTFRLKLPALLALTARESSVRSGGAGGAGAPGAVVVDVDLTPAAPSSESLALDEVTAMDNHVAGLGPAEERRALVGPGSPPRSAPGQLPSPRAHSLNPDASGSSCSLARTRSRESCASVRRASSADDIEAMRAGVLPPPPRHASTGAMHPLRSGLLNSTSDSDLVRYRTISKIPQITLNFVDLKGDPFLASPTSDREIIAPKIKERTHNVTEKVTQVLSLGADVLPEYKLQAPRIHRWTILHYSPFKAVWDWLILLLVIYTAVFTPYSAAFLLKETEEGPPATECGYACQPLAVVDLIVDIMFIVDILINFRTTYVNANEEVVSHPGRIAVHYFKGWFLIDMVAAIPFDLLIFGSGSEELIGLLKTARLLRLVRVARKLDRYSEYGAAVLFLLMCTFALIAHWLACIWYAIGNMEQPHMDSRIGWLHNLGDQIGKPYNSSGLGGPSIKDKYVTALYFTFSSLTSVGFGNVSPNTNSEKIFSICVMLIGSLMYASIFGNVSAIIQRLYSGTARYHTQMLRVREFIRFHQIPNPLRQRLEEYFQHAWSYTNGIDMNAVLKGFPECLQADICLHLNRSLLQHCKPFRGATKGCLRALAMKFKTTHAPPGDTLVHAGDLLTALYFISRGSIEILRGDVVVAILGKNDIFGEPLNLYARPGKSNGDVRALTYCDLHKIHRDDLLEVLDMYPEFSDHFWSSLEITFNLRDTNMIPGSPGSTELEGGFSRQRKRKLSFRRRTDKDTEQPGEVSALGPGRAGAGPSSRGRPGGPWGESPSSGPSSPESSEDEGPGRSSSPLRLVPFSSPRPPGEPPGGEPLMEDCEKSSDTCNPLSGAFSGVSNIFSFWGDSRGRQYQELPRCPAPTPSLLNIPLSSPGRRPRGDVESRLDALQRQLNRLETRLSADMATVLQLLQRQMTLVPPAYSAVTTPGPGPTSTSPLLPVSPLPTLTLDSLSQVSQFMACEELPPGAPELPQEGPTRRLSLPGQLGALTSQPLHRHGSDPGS
# test-method-notes: primary screen, population patch clamp on CHO cells stably expressing hERG; higher = less effect of the substance
Among all 310,000 compounds or so, about 14,000 (4.5%) showed an effect of 50% or more. The effect is printed as a negative number. Shown is part of a subset that was picked to be rich in strong results.
reported-endpoint: hERG current change (%, negative = inhibition) at 10uM (%)
State just the number; it will be interpreted in %.

INSERT INTO assay_data (molecule, measurement_target, assay_value) VALUES
  ('O=c1nc(SCc2cccc(C(F)(F)F)c2)nc2ccccn12', 'human ether-à-go-go-related gene (hERG) potassium channel (human, UniProt Q12809)', -37);

[in] Record COc1ccc(CN2CCN(Cc3cccc(Oc4ccccc4)c3)CC2)c(OC)c1OC.O=C(O)C(=O)O : what is its hERG current change (%, negative = inhibition) at 10uM with human ether-à-go-go-related gene (hERG) potassium channel (human, UniProt Q12809)?
[out] -58

[in] Record COc1ccc(CNCC(O)COc2cccc3c2OC(C)(C)C3)cc1.Cl (stereo not shown) : what is its hERG current change (%, negative = inhibition) at 10uM with human ether-à-go-go-related gene (hERG) potassium channel (human, UniProt Q12809)?
[out] -60.5

[in] Record COc1ccc(C2C(C(=O)N3CCC(C(N)=O)CC3)CC(=O)N2c2ccc(OC)cc2)cc1 (stereo not shown) : what is its hERG current change (%, negative = inhibition) at 10uM with human ether-à-go-go-related gene (hERG) potassium channel (human, UniProt Q12809)?
[out] -1.19

----------
This section presents compounds with their documented hERG current change (%, negative = inhibition) at 10uM values.
# measurement-target: human ether-à-go-go-related gene (hERG) potassium channel (human, UniProt Q12809);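 further: peak tail current of the secondary pulse compared with the same well before compound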
# test-method-notes: primary screen, population patch clamp on CHO cells stably expressing hERG; higher = less effect of the substance
The campaign covered roughly 310,000 compounds. About 14,000 (4.5%) showed an effect of 50% or more. Effects have a minus sign here. Only a selection was taken, and strong results are over-represented in it overall.
State just the number; it will be interpreted in %.

INSERT INTO measurements (compound, assay_value) VALUES
  ('Cn1cc(CNCc2ccc(-n3cccn3)cc2)c(-c2ccccc2F)n1', -62.2);

From here, focus on the item given below.
[in] Record Cc1ccc2[nH]c(=O)c(-c3nc4ccccn4c3NCc3ccco3)cc2c1 : what is its hERG current change (%, negative = inhibition) at 10uM with human ether-à-go-go-related gene (hERG) potassium channel (human, UniProt Q12809)?
[out] -12.3

----------
# measurement-target: human ether-à-go-go-related gene (hERG) potassium channel (human);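 further: peak tail current of the secondary pulse compared with the same well before compound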
# test-method-notes: primary screen, population patch clamp on CHO cells stably expressing hERG; higher = less effect of the substance
About 14,000 (4.5%) of roughly 310,000 compounds showed an effect of 50% or more. The effect is printed as a negative number. This excerpt belongs to a sample that is enriched for strong results.
Kindly return fulfilled if reported hERG current change (%, negative = inhibition) at 10uM is no lower than -30%; return not fulfilled if it is lower.

INSERT INTO assay_data (molecule, measurement_target, class) VALUES
  ('COc1ccc(NC(=O)CCS(=O)(=O)c2cc3c(cc2Cl)NC(=O)CO3)cc1OC', 'human ether-à-go-go-related gene (hERG) potassium channel (human)', 'fulfilled'),
  ('Brc1cccc(OCCCN2CCCCCC2)c1.O=C(O)C(=O)O', 'human ether-à-go-go-related gene (hERG) potassium channel (human)', 'not fulfilled'),
  ('O=P(C1=C(N2CCOCC2)/C(=C\c2ccccc2)CC1)(N1CCOCC1)N1CCOCC1', 'human ether-à-go-go-related gene (hERG) potassium channel (human)', 'fulfilled'),
  ('COc1cccc2c1OCC(CN1CCN(Cc3ccccc3)C(CCO)C1)=C2 (centres unmarked)', 'human ether-à-go-go-related gene (hERG) potassium channel (human)', 'not fulfilled'),
  ('CCOC(=O)C1C(=O)NC(C)C1c1ccccc1 (centres unmarked)', 'human ether-à-go-go-related gene (hERG) potassium channel (human)', 'fulfilled'),
  ('CC(CNC(=O)CCS(=O)(=O)c1ccc2c(c1)NC(=O)CO2)c1ccccc1 (centres unmarked)', 'human ether-à-go-go-related gene (hERG) potassium channel (human)', 'fulfilled'),
  ('Cc1ccc2nc(NCC(=O)O)nc(-c3ccccc3)c2c1', 'human ether-à-go-go-related gene (hERG) potassium channel (human)', 'fulfilled');

Let us examine a further case.
[in] Does the molecule Cc1noc(C)c1CSCC(=O)Nc1cc(C(F)(F)F)ccc1N1CCOCC1 have recorded hERG current change (%, negative = inhibition) at 10uM that is -30% or more?
[out] not fulfilled
